tested on: PC-3; assay: NCI tumour cell line growth inhibition, 48 h
Calls of active or inactive are those of the source. Rule as the data show it: active = GI50 up to about 1.1 µM and inactive = higher.
endpoint_name: GI50

Reference set (4 entries):
INSERT INTO measurements (compound, reported) VALUES
  ('CC(C)(C)c1cc(C(=O)/C=C/c2cc[nH]n2)cc(C(C)(C)C)c1O', '2.08 µM (inactive)'),
  ('C=CCn1c(-c2ccc([N+](=O)[O-])cc2)cs/c1=N\C(P(=O)(O)O)P(=O)(O)O', '> 100 µM (inactive)'),
  ('CC(C)Cc1ccc(C(C)/C=C2\CCC(CN3CCOCC3)C2=O)cc1 (stereo not given)', '12.3 µM (inactive)'),
  ('COCN1C(=O)[C@@H]2CCCN2C(=O)c2ccc([N+](=O)[O-])cc21', '> 100 µM (inactive)');

Let me know recorded GI50 for COc1cc(/C=C2\Sc3scc(-c4cccc([N+](=O)[O-])c4)[n+]3C2=O)cc(OC)c1OC , thanks.
21.4 µM (inactive)

---

Parameter GI50: see the listing below.
test system: OVCAR-8; experiment: NCI tumour cell line growth inhibition, 48 h
Activity calls are given as the source filed them. No stated cut-off is given here; in the data, active = GI50 up to about 1.1 µM and inactive = higher.

Reference set (5 entries):
INSERT INTO results (compound, reported) VALUES
  ('O=C([O-])Cc1ccccc1.[Na+] [SODIUM PHENYLACETATE]', '611 µM (inactive)'),
  ('N#CC1(Cc2ccc(N)cc2)c2ccccc2C=CN1C(=O)c1ccccc1 (configuration not stated)', '40.6 µM (inactive)'),
  ('CN(C)/C=N/c1nc2c(ncn2C2OC(CO)C(O)C2O)c(=O)[nH]1 (configuration not stated)', '> 100 µM (inactive)'),
  ('COC(=O)C1(C(=O)OC)N=C(C)OC1c1ccoc1 (configuration not stated)', '> 100 µM (inactive)'),
  ('O=C1C=CC(=O)c2c(O)c(N3CCN(c4ccccn4)CC3)cc(O)c21', '5.69 µM (inactive)');

Let me know recorded GI50 for O=C(Nc1ccccc1-c1nn(CN2CCNCC2)c(=S)n(CN2CCNCC2)c1=O)C(F)(F)F , thanks.
20.6 µM (inactive)

Let me know recorded GI50 for S=c1[nH]nc(Cc2ccccc2)c(=S)[nH]1 , thanks.
> 61.2 µM (inactive)

Let me know recorded GI50 for C(CCc1nnc2c(n1)CCCC2)Cc1nnc2c(n1)CCCC2 , thanks.
> 100 µM (inactive)

Let me know recorded GI50 for CC(C)OC(=O)c1ccc(NCC2=CC(=O)C=CC2=O)cc1Cl , thanks.
5.68 µM (inactive)

Let me know recorded GI50 for COC(=O)C(=O)CC(=O)CCn1[nH]c(=O)c(Cl)c(Cl)c1=O , thanks.
> 100 µM (inactive)

Let me know recorded GI50 for COc1ccccc1/C=C1\CCC(CNc2ccc(Cl)cc2)C1=O (configuration not stated) , thanks.
3.46 µM (inactive)

Let me know recorded GI50 for [N-]=[N+]=Nc1c([N+](=O)[O-])c(Cl)nc2ccccc12 , thanks.
1.87 µM (inactive)

Let me know recorded GI50 for C(=C\c1nccs1)/c1cccc(/C=C/c2nccs2)n1 , thanks.
47.9 µM (inactive)

---

Parameter GI50: see the listing below.
system: EKVX; test: NCI tumour cell line growth inhibition, 48 h
The source made the active and inactive calls. Rule as the data show it: active = GI50 up to about 1.1 µM and inactive = higher.

INSERT INTO measurements (molecule, endpoint_name, reported) VALUES
  ('CCOc1ccc(N/C(=C(/C(Cl)=C(/Cl)NC(C)(C)C)[N+](=O)[O-])n2nnc3ccccc32)cc1', 'GI50', '39 µM (inactive)'),
  ('Cc1cccc2c1C(=O)C(C1OC(=O)c3ccccc31)C2 (stereo unspecified)', 'GI50', '> 100 µM (inactive)'),
  ('CN/C=C(\C(=O)c1ccc(OC)c(OC)c1)c1ccc(OC)cc1', 'GI50', '27.4 µM (inactive)'),
  ('COC(CN(C)C(=S)Nc1cccc2ccccc12)OC', 'GI50', '> 10 µM (inactive)'),
  ('CCCCCCCCCCCCCCCCCc1cccc(OCOCCOC)c1C(=O)O', 'GI50', '18.9 µM (inactive)');

Retrieve GI50 on EKVX; query CN(/N=N/c1[nH]cnc1C(N)=O)C1CCCCC1
> 100 µM (inactive)

---

system: MCF7; experiment: NCI tumour cell line growth inhibition, 48 h
The source made the active and inactive calls. Rule as the data show it: active = GI50 up to about 1.1 µM and inactive = higher.
Give one outcome, nothing more. List: active, inactive

INSERT INTO measurements (molecule, group_label) VALUES
  ('CC(=O)NNC(=S)N/C=C1/C(=O)Oc2ccccc2C1=O', 'inactive'),
  ('COC12C=CC(CC1)C1C(=O)c3c(C)c(C)n(C)c3C(=O)C12 (configuration not stated)', 'inactive'),
  ('CC(C)=CCc1c2c(c3occ(-c4ccc(O)c(O)c4)c(=O)c3c1O)C=CC(C)(C)O2 [POMIFERIN]', 'inactive');

Attention now shifts to the item below.
Tell me the assay call for COc1cc(-c2nc(SC)nc3c2CCc2ccccc2-3)cc(OC)c1OC please.
inactive

---

tested on: NCI-H522; experiment: NCI tumour cell line growth inhibition, 48 h
Active and inactive are the calls of the source. Cut-off read from the data, not from the text of the source: active = GI50 up to about 1.1 µM and inactive = higher.
endpoint_name: GI50

Reference set (6 entries):
INSERT INTO measurements (molecule, endpoint_name, reported) VALUES
  ('CC(C)(C)c1cc(C(=O)/C=C/c2cc[nH]n2)cc(C(C)(C)C)c1O', 'GI50', '1.43 µM (inactive)'),
  ('N#Cc1cc([N+](=O)[O-])ccc1NC(=O)C(=O)C(C(=O)c1ccc2ccccc2c1)C1OCc2ccccc21 (stereo unspecified)', 'GI50', '7.29 µM (inactive)'),
  ('COc1cccc(/C=C2\CCC(C)(CN(C)C)C2=O)c1 (stereo unspecified)', 'GI50', '30.7 µM (inactive)'),
  ('CCN(CC)CC(=O)N1CCc2c([nH]c3ccccc23)C1c1cccnc1 (stereo unspecified)', 'GI50', '> 100 µM (inactive)'),
  ('O=C1C2C3C4C1C1C2[C@H](OCc2ccccc2)C3C1[C@H]4OCc1ccccc1 (stereo partly specified)', 'GI50', '11.2 µM (inactive)'),
  ('NC1CC2C3CCC2C1C3=O (stereo unspecified)', 'GI50', '> 100 µM (inactive)');

Let me know recorded GI50 for N#CNCC(COCc1ccccc1)c1ccccc1 (stereo unspecified) , thanks.
> 100 µM (inactive)

Let me know recorded GI50 for CCOC(=O)/C(C(=O)Nc1cccc(C(F)(F)F)c1)=C(/N)N1CCOCC1 , thanks.
> 100 µM (inactive)

Let me know recorded GI50 for NC(=O)N/N=C/C(=C/Nc1ccccc1)[N+](=O)[O-] , thanks.
> 100 µM (inactive)

Let me know recorded GI50 for C#CCNC(=O)NCCCCC(NC(C)=O)C(=O)NCc1ccccc1 (stereo unspecified) , thanks.
> 100 µM (inactive)

Let me know recorded GI50 for C[Si](C)(C)[C@@]1([Se]c2ccccc2)CC[C@@H]1C(=O)c1ccccc1 , thanks.
23.7 µM (inactive)

---

test system: A549; test: NCI tumour cell line growth inhibition, 48 h
Activity calls are given as the source filed them. Rule as the data show it: active = GI50 up to about 1.1 µM and inactive = higher.
endpoint_name: GI50

Reference set (3 entries):
INSERT INTO measurements (molecule, endpoint_name, reported) VALUES
  ('COc1cccc(C2CC(C)(O)Oc3cc4c(cc32)OCO4)c1 (stereo unspecified)', 'GI50', '31 µM (inactive)'),
  ('CCOC(=O)c1cnc2oc3ccc(O)cc3c2c1C', 'GI50', '> 100 µM (inactive)'),
  ('CCN(CC)CSc1nc2ccccc2o1', 'GI50', '> 100 µM (inactive)');

Let me know recorded GI50 for CC(C)(C)c1ccc(S(=O)(=O)N2C(c3cccc(C4CC[C@@H](C(=O)O)N4S(=O)(=O)c4ccc(C(C)(C)C)cc4)c3)CC[C@H]2C(=O)O)cc1 (stereo partly specified) , thanks.
66.7 µM (inactive)

---

tested on: MCF7; experiment: NCI tumour cell line growth inhibition, 48 h
The source made the active and inactive calls. Cut-off read from the data, not from the text of the source: active = GI50 up to about 1.1 µM and inactive = higher.
Parameter GI50: see the listing below.

Reference set (3 entries):
INSERT INTO measurements (smiles_text, reported) VALUES
  ('CCO/C=C(\C(=O)OC)S(=O)(=O)c1ccc(C)cc1', '> 100 µM (inactive)'),
  ('S=c1[nH]nc(Cc2ccccc2)c(=S)[nH]1', '55.8 µM (inactive)'),
  ('FC(F)(Sc1ncccn1)c1nc2ccccc2o1', '> 100 µM (inactive)');

Let me know recorded GI50 for O=C(NC(Nc1ccc(F)cc1)(C(F)(F)F)C(F)(F)F)C(C(F)(F)F)C(F)(F)F , thanks.
16.7 µM (inactive)

---

Parameter GI50: see the listing below.
tested on: IGROV-1; experiment: NCI tumour cell line growth inhibition, 48 h
The source made the active and inactive calls. No stated cut-off is given here; in the data, active = GI50 up to about 1.1 µM and inactive = higher. Square brackets hold non-standard residues; d marks the D form. Peptide text beside a SMILES is read from it.

Reference set (5 entries):
INSERT INTO assay_data (molecule, study_target, reported) VALUES
  ('CC(C)C[C@H](NC(=O)[C@H](CC(C)C)NC(=O)[C@@H](Cc1c[nH]c2ccccc12)NC(=O)[C@H](Cc1ccccc1)NC(=O)[C@@H](Cc1c[nH]c2ccccc12)NC(=O)[C@H](CCC(N)=O)NC(=O)[C@@H](CCC(N)=O)NC(=O)[C@@H]1CCCN1C(=O)[C@@H](CCCCN)NC(=O)[C@H]1CCCN1C(=O)[C@H](N)CCCN=C(N)N)C(N)=O (H-[dR][dP][dK]P[dQ]Q[dW]F[dW]LL-NH2)', 'IGROV-1', '> 100 µM (inactive)'),
  ('COc1cc(C2SCC(=O)N2c2ccc(-c3ccc(-n4c(-c5ccccc5)nc5ccccc5c4=O)cc3)cc2)ccc1O (stereo not drawn)', 'IGROV-1', '> 100 µM (inactive)'),
  ('Clc1ccc(/N=c2\oc3ccccc3cc2-c2nc3ccccc3[nH]2)c(Cl)c1', 'IGROV-1', '> 100 µM (inactive)'),
  ('CC1(C)OC(C(=O)Nc2cc3c4ccccc4ccc3c3ccccc23)C(C(=O)N2CCCCC2)O1 (stereo not drawn)', 'IGROV-1', '1.32 µM (inactive)'),
  ('Cc1ccc2nc(CN(CCO)CCO)cc(=O)n2c1', 'IGROV-1', '> 100 µM (inactive)');

Let me know recorded GI50 for CCc1n[nH]c(=O)n1/N=C(\C)c1ccc([N+](=O)[O-])cc1 , thanks.
82.6 µM (inactive)

Let me know recorded GI50 for Cc1ccc(S(=O)(=O)NCCCN(CCCNS(=O)(=O)c2ccc(C)cc2)S(=O)(=O)c2ccc(C)cc2)cc1 , thanks.
> 100 µM (inactive)

Origin of values: ChEMBL document CHEMBL1201862
